Recorded values, source patent US20180099931A1.

List of Emax values.
# TGT: F508delCFTR (Homo sapiens, UniProt P13569, DEL508-508)
# Construct: expressed in transfected cells; host or cells: CFBE41o- human lung-derived epithelial cells (CFBE4lo-F508delCFTR-HRP), doxycycline-inducible
# Sequence (P13569 with tags, fused parts or gaps DEL508-508): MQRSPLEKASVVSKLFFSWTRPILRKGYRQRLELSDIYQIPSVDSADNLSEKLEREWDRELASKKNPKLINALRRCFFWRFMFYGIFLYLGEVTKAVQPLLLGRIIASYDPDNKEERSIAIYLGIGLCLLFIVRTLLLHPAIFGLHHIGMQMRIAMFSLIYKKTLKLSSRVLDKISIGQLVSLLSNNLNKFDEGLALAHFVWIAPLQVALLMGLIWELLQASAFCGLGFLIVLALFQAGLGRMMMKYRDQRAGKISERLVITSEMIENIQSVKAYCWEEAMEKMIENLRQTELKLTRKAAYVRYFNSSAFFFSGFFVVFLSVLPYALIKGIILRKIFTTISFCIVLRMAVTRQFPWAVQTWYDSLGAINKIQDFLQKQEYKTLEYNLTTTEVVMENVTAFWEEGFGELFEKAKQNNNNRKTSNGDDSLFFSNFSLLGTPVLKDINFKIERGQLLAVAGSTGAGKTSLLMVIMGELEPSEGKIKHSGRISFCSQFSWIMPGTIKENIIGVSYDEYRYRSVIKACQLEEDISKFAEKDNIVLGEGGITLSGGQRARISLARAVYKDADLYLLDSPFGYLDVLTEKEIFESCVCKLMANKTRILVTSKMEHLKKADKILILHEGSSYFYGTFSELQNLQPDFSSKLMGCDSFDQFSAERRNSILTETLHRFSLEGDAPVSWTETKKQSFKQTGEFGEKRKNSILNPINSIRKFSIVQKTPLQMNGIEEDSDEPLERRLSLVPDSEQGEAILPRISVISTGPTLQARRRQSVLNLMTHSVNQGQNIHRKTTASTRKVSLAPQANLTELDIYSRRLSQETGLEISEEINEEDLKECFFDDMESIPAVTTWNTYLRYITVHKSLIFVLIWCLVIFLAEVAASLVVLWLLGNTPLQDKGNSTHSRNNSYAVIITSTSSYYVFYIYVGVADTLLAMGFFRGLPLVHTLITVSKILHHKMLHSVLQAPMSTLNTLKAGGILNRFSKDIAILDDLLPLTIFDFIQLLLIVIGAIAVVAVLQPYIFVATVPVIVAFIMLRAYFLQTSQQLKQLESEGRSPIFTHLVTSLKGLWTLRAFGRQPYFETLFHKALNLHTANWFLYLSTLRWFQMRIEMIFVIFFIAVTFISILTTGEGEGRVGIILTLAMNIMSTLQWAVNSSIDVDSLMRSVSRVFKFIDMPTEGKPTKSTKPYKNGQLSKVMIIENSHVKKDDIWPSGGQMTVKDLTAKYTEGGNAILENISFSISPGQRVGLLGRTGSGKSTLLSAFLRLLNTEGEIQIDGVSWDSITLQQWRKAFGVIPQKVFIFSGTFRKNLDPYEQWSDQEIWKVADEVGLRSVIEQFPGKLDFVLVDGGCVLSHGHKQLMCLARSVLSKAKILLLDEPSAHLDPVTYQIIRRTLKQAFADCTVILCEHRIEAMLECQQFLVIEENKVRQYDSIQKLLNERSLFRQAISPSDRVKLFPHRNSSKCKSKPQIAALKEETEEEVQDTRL
# EXPERIMENT SUMMARY: Cell Surface Expression-Horse Radish Peroxidase (CSE-HRP) Assay;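 note: percent of the 2 µM on-plate positive control corrector response above DMSO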
# Format: cell-based
# STATED CONDITIONS: test compound without co-corrector; maximum at any tested concentration, normalized to on-plate positive control; read-out: Maximum % activity (without co-corrector)
# Method: Cell Surface Expression-Horse Radish Peroxidase (CSE-HRP) Assay The development was achieved by expressing the F508delCFTR mutation along with a horseradish peroxidase (HRP) in the fourth exofacial loop, and then measuring the HRP activity using luminescence readout from these cells, CFBE4lo-F508delCFTR-HRP, that were incubated overnight with the test corrector compounds, either without or with the co-corrector. […] The raw counts from the experiment were analyzed using Accelrys® Assay Explorer v3.3. […]
REPORTED PROPERTY: Emax

CC(C)(C)[C@@H]1[C@@H](NCc2ccc(Cl)cc2Cl)[C@@H](c2ccccc2)N(C(=O)CC2CCCC2)[C@H]1C(=O)O (racemic) :: < 100%
COc1ccc(C(F)(F)F)cc1CN[C@@H]1[C@@H](C(C)(C)C)[C@@H](C(=O)O)N(C(=O)C2CCCCC2)[C@H]1c1ccccc1 :: < 100%
COc1ccc(C(C)(C)C)cc1CN[C@H]1[C@H](C(C)(C)C)[C@@H](C(=O)O)N(C(=O)C(C)Oc2cc(C)cc(C)c2)[C@H]1c1ccccc1 (stereo partly drawn) :: > 200%
COc1cc2c(cc1CN[C@@H]1[C@H](C(C)(C)C)[C@@H](C(=O)O)N(C(=O)OC(C)C)[C@H]1c1ccccc1)CCC2 :: < 100%
COc1ccc(C23CC(C2)C3)cc1CN[C@H]1[C@H](C(C)(C)C)[C@@H](C(=O)O)N(C(=O)[C@H]2CCCC(F)(F)C2)[C@H]1c1ccccc1 :: > 200%
COc1ccc(C(C)(C)C)cc1CN[C@H]1[C@H](C(C)(C)C)[C@@H](C(=O)O)N(C(=O)Cc2ccc(F)c(F)c2)[C@H]1c1ccccc1 :: 100 to 200%
COc1ccc(C(F)(F)F)cc1CN[C@H]1[C@H](C(C)(C)C)[C@@H](C(=O)O)N(C(=O)C2CCC(C)(C)C2)[C@H]1c1ccccc1 (stereo partly drawn) :: 100 to 200%
COc1ccc(C(C)(C)C)cc1CN[C@H]1[C@H](C(C)(C)C)[C@@H](C(=O)O)N(C(=O)C2CCC(C)CC2)[C@H]1c1ccccc1 (stereo partly drawn) :: > 200%
CC(C)(C)[C@@H]1[C@@H](NCc2cccc(OC3CCOCC3)n2)[C@@H](c2ccccc2)N(C(=O)C2CCCCC2)[C@H]1C(=O)O (racemic) :: < 100%
CC(C)(C)[C@@H]1[C@@H](NCc2cc(C(F)(F)F)ccc2OCCCS(C)(=O)=O)[C@@H](c2ccccc2)N(C(=O)C2CCCCC2)[C@H]1C(=O)O (racemic) :: < 100%
COc1ccc(C(C)(C)C)cc1CN[C@H]1[C@H](C(C)(C)C)[C@@H](C(=O)O)N(C(=O)C2COc3ccccc3O2)[C@H]1c1cccnc1N(C)C (single isomer, unassigned) :: < 100%
COc1ccc(C(F)(F)F)cc1CN[C@H]1[C@H](C(C)(C)C)[C@@H](C(=O)O)N(C(=O)OC(C)C)[C@H]1c1cccnc1N(C)C :: > 200%
